Listed here: compounds with reported Ki for Mu-type opioid receptor (Bos taurus).
Express your answer in nM, writing the number without its unit.

INSERT INTO assay_data (compound, parameter, quantity_unit, reported) VALUES
  ('CC[C@H]1C[C@@H]2C[C@H]3c4[nH]c5ccc(OC)cc5c4CC[N@@](C2)[C@@H]13', 'Ki', 'nM', 2);

Attention now shifts to the item below.
Under Mu-type opioid receptor (Bos taurus): Ki value of COCC[C@H]1C[C@H]2CN3CCc4c([nH]c5ccc(OC)cc45)[C@](C(=O)OC)(C2)[C@H]13 (racemic) ?
1.1

* * *

molecular target: Neuronal acetylcholine receptor; alpha4/beta2 (Homo sapiens, UniProt P17787+P43681); experiment: Antagonist activity at alpha4beta2 nAChRs (unknown origin) assessed as inhibition constant
Sequence (P17787 whole entry): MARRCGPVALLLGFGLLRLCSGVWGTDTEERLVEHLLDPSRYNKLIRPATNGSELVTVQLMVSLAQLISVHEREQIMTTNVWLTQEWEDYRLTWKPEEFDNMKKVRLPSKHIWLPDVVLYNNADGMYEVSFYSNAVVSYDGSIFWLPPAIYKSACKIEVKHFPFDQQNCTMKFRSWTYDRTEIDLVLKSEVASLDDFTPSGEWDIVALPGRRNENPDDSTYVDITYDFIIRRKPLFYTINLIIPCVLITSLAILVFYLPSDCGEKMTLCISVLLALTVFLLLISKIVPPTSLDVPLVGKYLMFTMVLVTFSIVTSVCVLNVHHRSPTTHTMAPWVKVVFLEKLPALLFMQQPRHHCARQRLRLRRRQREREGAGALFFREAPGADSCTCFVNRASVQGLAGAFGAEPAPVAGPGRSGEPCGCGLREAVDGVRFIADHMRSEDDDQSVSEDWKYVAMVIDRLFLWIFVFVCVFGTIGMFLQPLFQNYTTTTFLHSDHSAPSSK
Sequence (P43681 whole entry): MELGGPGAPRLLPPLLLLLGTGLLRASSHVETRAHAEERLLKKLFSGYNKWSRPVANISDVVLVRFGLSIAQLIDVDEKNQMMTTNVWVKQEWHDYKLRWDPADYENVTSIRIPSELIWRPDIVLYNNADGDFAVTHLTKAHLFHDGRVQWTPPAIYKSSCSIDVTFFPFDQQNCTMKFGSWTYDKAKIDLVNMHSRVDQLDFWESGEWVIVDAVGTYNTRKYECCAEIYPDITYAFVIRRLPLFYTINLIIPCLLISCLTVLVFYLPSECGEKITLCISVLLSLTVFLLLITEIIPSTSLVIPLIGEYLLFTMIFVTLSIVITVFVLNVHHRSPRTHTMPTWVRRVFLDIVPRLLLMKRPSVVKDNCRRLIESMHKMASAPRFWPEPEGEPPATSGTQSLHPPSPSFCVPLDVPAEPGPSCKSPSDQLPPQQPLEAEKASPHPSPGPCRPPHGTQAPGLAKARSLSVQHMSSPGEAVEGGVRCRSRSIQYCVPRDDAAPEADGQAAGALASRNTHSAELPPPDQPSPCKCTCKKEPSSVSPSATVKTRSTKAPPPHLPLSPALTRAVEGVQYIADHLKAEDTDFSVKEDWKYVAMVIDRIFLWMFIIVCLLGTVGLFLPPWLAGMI
PARAMETER: Ki (nM)
Expressed in nM, but write only the number.

Fill in the blank: the reported Ki of CNC1(C)[C@H]2CC[C@H](C2)C1(C)C (mixture of isomers) is ____.
2500
